# EXPERIMENT NOTES: Plasma concentration in C57BL6 mouse at 100 mg/kg, po after 4 hr
# Type: ADME, organism-based
# Parameters: dose 100 mg/kg, route oral
Answer each item with its documented concentration at 4 h.

Example results:
>  <SMILES REPR>
CNC(=O)c1nc(-c2ccc(Cl)c(S(=O)(=O)Nc3cccc(Cl)c3)c2)cnc1N

>  <concentration at 4 h>
100 nM

$$$$
>  <SMILES REPR>
CNC(=O)c1nc(-c2ccc(Cl)c(S(=O)(=O)Nc3cccc(F)c3Cl)c2)cnc1N

>  <concentration at 4 h>
39800 nM

$$$$
>  <SMILES REPR>
CNC(=O)c1nc(-c2ccc(Cl)c(S(=O)(=O)Nc3ccc(Cl)cc3Cl)c2)cnc1N

>  <concentration at 4 h>
8600 nM

$$$$
>  <SMILES REPR>
CC(C)c1ccc(-c2nccnc2N2CCN(S(=O)(=O)c3cccc(-c4cnc(N)nc4)c3)CC2)cc1

>  <concentration at 4 h>
100 nM

$$$$

Here is another compound to look at.
Which concentration at 4 h value is on record for `CNC(=O)c1nc(-c2ccc(Cl)c(S(=O)(=O)Nc3cccc(OC)c3)c2)cnc1N` ?
90 nM

====

Answer each item with its documented metabolised at 0.5 h.
# EXPERIMENT NOTES: Drug metabolism in mouse liver microsome assessed as compound oxidation after 30 mins
# Format: ADME
# TEST SETTINGS: liver microsomes, read-out: Drug metabolism
Give bare numbers, in %.

>  <SMILES REPR>
CC(C)c1ccc(-c2ncccc2N2CCN(S(=O)(=O)c3cccc(-c4cnc(N)nc4)c3)CC2)cc1

>  <PARAMETER>
metabolised at 0.5 h

>  <VAL>
37

$$$$

Here is another compound to look at.
Which metabolised at 0.5 h value is on record for `CC(C)c1ccc(-c2nccnc2N2CCN(S(=O)(=O)c3cccc(-c4cnc(N)nc4)c3)CC2)cc1` ?
79

====

Answer each item with its documented bioavailability.
# EXPERIMENT NOTES: Oral bioavailability Sprague-Dawley rat at 5 mg/kg
# Format: ADME, organism-based
# TEST SETTINGS: in vivo
Give bare numbers, in %.

>  <SMILES REPR>
CNC(=O)c1nc(-c2ccc(Cl)c(S(=O)(=O)Nc3cccc(F)c3F)c2)cnc1N

>  <READOUT UNIT>
%

>  <VAL>
76.7

$$$$
>  <SMILES REPR>
CNC(=O)c1nc(-c2ccc(Cl)c(S(=O)(=O)Nc3cccc(F)c3C)c2)cnc1N

>  <READOUT UNIT>
%

>  <VAL>
66.2

$$$$

Here is another compound to look at.
Which bioavailability value is on record for `CC(C)c1ccc(-c2ncccc2N2CCN(S(=O)(=O)c3cccc(-c4cnc(N)nc4)c3)CC2)cc1` ?
12.7

====

# EXPERIMENT NOTES: Plasma concentration in C57BL6 mouse at 100 mg/kg, po after 1 hr
# Assay type: ADME, organism-based
# Design: dose 100 mg/kg, route oral
PARAMETER: concentration at 1 h (µM)
Give bare numbers, in µM.

>  <SMILES REPR>
CC(C)c1ccc(-c2ncccc2N2CCN(S(=O)(=O)c3cccc(-c4cnc(N)nc4)c3)CC2)cc1

>  <READOUT UNIT>
µM

>  <concentration at 1 h>
12.9

$$$$
>  <SMILES REPR>
CNC(=O)c1nc(-c2ccc(Cl)c(S(=O)(=O)Nc3cccc(F)c3F)c2)cnc1N

>  <READOUT UNIT>
µM

>  <concentration at 1 h>
333

$$$$
>  <SMILES REPR>
CC(C)c1ccc(-c2nccnc2N2CCN(S(=O)(=O)c3cccc(-c4cnc(N)nc4)c3)CC2)cc1

>  <READOUT UNIT>
µM

>  <concentration at 1 h>
0.7

$$$$

Which concentration at 1 h value is on record for `CNC(=O)c1nc(-c2ccc(Cl)c(S(=O)(=O)Nc3cccc(F)c3C)c2)cnc1N` ?
13.1

Measured values drawn from ChEMBL document CHEMBL2150966 for this set.
